experimentalSystem: T1, huMICA*008 alpha 3-his (human)
T1 construct: whole construct entry: GS, alpha 3 domain (Thr204-Ser297), GNS, His8; also the construct of the FPOP experiment; also called MICA008.His; MICA*008 alpha3 construct
T1 chain: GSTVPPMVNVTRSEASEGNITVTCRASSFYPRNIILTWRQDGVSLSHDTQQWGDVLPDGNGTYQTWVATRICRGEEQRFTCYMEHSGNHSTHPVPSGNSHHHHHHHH
assayProcedure: SPR, Biacore 8K, antibody on Protein A chip
pKd: −log10 of the molar value.
Listing of recorded pKd by entry.
reportedProperty: pKd

>>> measurednumber("15F11v2 (antibody, IgG1, V domains shown, humanized variant of 15F11) VH: EIQLVQSGAEVKKPGASVKVSCKPSGYAFTSNNIYWVRQAPGQGLEWIGYIDPYIGRIIYNQQFKDRATLTVDKSTSTAYLELSSLRSEDTAVYYCSRSGERSNFDYWGQGTLVTVSS VL: EIVLTQSPATLSLSPGERATLSCSASSSISSNYLHWYQQKPGQAPRLLIYRTSNLASGIPARFSGSGSGTDFTLTISSLEPEDFAVYYCQQGGSLPLTFGQGTKVEIK")
8.50
>>> measurednumber("1D5v6 (antibody, IgG1, V domains shown, humanized variant of 1D5) VH: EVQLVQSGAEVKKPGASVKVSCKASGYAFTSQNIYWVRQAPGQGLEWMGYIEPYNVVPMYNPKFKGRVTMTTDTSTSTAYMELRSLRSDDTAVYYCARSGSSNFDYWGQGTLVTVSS VL: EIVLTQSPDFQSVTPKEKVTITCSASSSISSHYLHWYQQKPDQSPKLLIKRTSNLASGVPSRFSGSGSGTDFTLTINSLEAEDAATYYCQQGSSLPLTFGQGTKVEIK")
8.58
